Assay: qHTS Assay for Spectroscopic Profiling in A350 Spectral Region
Conditions: Compound autofluorescence, 340/450 nm, Alexa 350 dye-equivalents
The whole screen tested about 59,000 compounds, of which about 6,500 (11%) were called active. Not shown: some 15% with an inconclusive outcome. No stated cut-off is given here; in the data, active means max dye-equivalent concentration above about 10 nM; inconclusive means mostly about 1.1 nM to 9.6 nM; inactive means weaker than that. The entries come from a sample that favours actives as a whole.
Classes used: active, inactive

- O=C(OCC(=O)N1CCN(C(=O)c2ccco2)CC1)c1ccccc1Cc1ccccc1: inactive
- Cc1ccccc1CSc1nnc(-c2cccnc2)n1N: inactive
- CCSC1=C(C#N)C(=O)n2c1cc1c2CCCC1: inactive
- Cc1nnc(SCC(N)=O)n1CC1CCCO1 (centres undefined): inactive
- CCCn1c(SCC(=O)Nc2cccc(C(=O)OCC)c2)nnc1-c1ccoc1C: inactive
- CC1(C)Cc2c(C#N)c(SCc3nc4ccccc4[nH]3)nc(N3CCOCC3)c2CO1: active
- Cc1ccc(NC(=O)CN2CCC3(O)CCCCC3C2c2ccc3c(c2)OCO3)c(C)c1 (centres undefined): inactive
- CCN(CC)S(=O)(=O)c1cccc(C(=O)NCC(=O)OCC(=O)NCc2ccccc2)c1: inactive
- Cn1c(=O)c2c(nc(CN3CCOCC3)n2Cc2ccccc2)n(C)c1=O: inactive
- COC(=O)[C@@H]1[C@H]2C[C@H]3c4[nH]c5cc(OC)ccc5c4CCN3C[C@@H]2C[C@@H](OC(=O)c2cc(OC)c(OC)c(OC)c2)[C@@H]1OC: inactive
- CC1=C(C(=O)Nc2ccc(Cl)cc2)C(c2ccco2)NC(=O)N1 (centres undefined): inactive
- CCN1C(=O)C(C(=O)NC(C)c2ccccc2)C2CC1(C)Oc1ccccc12 (centres undefined): inactive
- CC(C)C(=O)N1CCN(c2nc(-c3ccccc3)c3c(c2C#N)CC(C)(C)OC3)CC1: active
- CCC(C(=O)NC1CCCC1)N(C(=O)c1snc(C(N)=O)c1N)c1ccc2c(c1)OCCO2 (centres undefined): inactive
- O=C(CSc1nnc(-c2ccncc2)n1C1CCCCC1)Nc1ccccc1: inactive
- Cc1ccc(-c2ccc(=O)n(CC(=O)NCCCN3CCCCC3)n2)cc1: inactive
- O=C(Nc1cccc(-c2nnc(-c3ccccc3)o2)c1)C1CCCO1 (centres undefined): inactive
- O=C(NCCc1ccccn1)c1ccc(COc2ccccc2)o1: inactive
- O=c1[nH]c(=O)n([C@H]2C[C@H](O)[C@H](CO)O2)cc1Br: inactive
- Cc1ccc(C(=O)OCC(=O)NCc2ccc3c(c2)OCO3)s1: inactive
- COc1ccccc1CNc1ccnc(-c2c(C)noc2C)n1: inactive
- CCOC(=O)CN(C(=O)CN1CCOCC1)c1ccc(Br)cc1: inactive
- CSCCC(NS(=O)(=O)/C=C/c1ccccc1)C(=O)N1CCC(C)CC1 (centres undefined): inactive
- COc1ccc(S(=O)(=O)N2CCCCC2)cc1Br: inactive
- CCOC(=O)c1[nH]c2ccccc2c1N=C(C)N(CC)CC: inactive
- Cc1cccn2c(=O)c3cc(C#N)c(=O)n(CCCN4CCOCC4)c3nc12: active
- CCOC(=O)c1ccc(NC(=O)CSc2ncccn2)cc1: inactive
- O=C1CCC(=O)N1CCOP1(=O)COc2ccccc2OC1: inactive
- COc1ccc(-c2nnn(CC(=O)N(CCO)C(C(=O)NC3CCCC3)c3ccc(F)cc3)n2)cc1 (centres undefined): inactive
- CCOC(=O)CN(C)Cc1c[nH]c2ccccc12: inactive
- c1ccc2[nH]c(NCCN3CCOCC3)nc2c1: inactive
- O=C(Nc1ccon1)c1cccc(Cl)c1: inactive
- COCCCn1c(CCC(=O)O)ccc1-c1ccc(F)cc1: active
- CC(=O)NC(C)c1nc2ccccc2n1Cc1ccccc1F (centres undefined): inactive
- O=C(Nc1ccc(-c2nnc(-c3ccccc3)o2)cc1)C1CCCO1 (centres undefined): inactive
- CCc1nc(C)cn1S(=O)(=O)c1cc(OC)c(C)cc1C: inactive
- CN(C)C(=O)c1ccc(-c2cncnc2Nc2ccccc2)cc1: inactive
- N#C/C=C1\Sc2ccccc2C(=O)N1CC(=O)N1CCN(S(=O)(=O)c2ccccc2)CC1: active
- COc1cc([C@H]2c3cc4c(cc3[C@@H](O[C@@H]3O[C@H]5CO[C@@H](C)O[C@]5(O)C[C@H]3O)[C@@H]3COC(=O)[C@H]23)OCO4)cc(OC)c1O: inactive
- COCCNC(=O)C(c1ccc(C)o1)N(Cc1ccccc1)C(=O)Cn1nnc2ccccc21 (centres undefined): inactive
- O=C(Nc1ccc(-c2nnc(-c3ccccc3)o2)cc1)c1ccc(Br)o1: active
- CCC(c1nnnn1C1CCCC1)N1CCN(C(=O)c2ccco2)CC1 (centres undefined): inactive
- Cc1ccnc(N2CCN(C(=O)CSc3nc4ccccc4nc3N3CCCCC3)CC2)c1: active
- CCc1ccc(-c2nnn(Cc3nn[nH]n3)n2)cc1: inactive
